- Assay system: human PDE2A1 (Homo sapiens, UniProt O00408)
- Construct: GST; purchased BPS Bioscience (San Diego, Calif.) 60020; host or cells: insect cells
- Sequence (O00408 1-920 isoform O00408-2): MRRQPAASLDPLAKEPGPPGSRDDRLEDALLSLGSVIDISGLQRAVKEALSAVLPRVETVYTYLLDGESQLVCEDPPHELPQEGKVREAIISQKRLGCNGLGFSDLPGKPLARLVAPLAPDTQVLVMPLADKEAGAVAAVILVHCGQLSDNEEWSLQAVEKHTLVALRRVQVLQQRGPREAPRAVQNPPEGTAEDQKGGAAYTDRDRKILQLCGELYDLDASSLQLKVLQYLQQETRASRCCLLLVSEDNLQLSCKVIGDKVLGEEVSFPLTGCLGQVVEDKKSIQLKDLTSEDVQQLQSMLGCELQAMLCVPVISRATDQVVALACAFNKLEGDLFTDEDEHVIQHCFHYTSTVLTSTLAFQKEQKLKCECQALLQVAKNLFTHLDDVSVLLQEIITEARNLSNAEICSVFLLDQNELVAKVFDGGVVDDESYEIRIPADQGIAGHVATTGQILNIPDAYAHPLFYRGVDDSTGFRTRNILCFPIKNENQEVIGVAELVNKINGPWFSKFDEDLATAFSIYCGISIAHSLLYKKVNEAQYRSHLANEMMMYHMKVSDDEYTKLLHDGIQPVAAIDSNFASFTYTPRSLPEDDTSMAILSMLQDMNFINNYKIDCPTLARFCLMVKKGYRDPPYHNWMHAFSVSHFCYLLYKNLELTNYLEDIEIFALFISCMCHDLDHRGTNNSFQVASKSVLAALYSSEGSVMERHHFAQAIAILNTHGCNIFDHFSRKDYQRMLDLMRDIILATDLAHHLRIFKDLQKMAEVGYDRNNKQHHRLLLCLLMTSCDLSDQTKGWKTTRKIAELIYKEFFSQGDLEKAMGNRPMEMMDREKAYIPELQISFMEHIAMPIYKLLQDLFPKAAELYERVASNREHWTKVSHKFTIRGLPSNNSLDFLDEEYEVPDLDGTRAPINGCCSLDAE
- Procedure details: IMAP FP PDE assay, human PDE2A1
- Format: biochemical
- Particulars: Lab B; read-out: Human PDE2 Ki (nM) Lab B
Reported Ki values for a set of molecules
Endpoint: Ki (nM)

1. Cc1nc2c(c(CO)nn2C(C)c2ccc(C(C)(F)F)cc2)c(=O)[nH]1 (single isomer, unassigned) [Example 116] :: 392
2. Cc1nc2c(c(CO)nn2C(C)c2ccc(SC(F)(F)F)cc2)c(=O)[nH]1 (single isomer, unassigned) [Example 23] :: 1.1
3. Cc1nc2c(c(C(F)F)nn2C(C)c2ccc(OC(F)F)cc2)c(=O)[nH]1 (single isomer, unassigned) [Example 181] :: 82
4. COc1ccc(C(=O)c2nc3c(c(C(F)F)nn3C(C)c3ccc(C(F)(F)F)cc3)c(=O)[nH]2)cc1OC (stereo not shown) :: 21
5. Cc1nc2c(c(CC(F)F)nn2C(C)c2ccc(C(F)(F)F)cc2)c(=O)[nH]1 (single isomer, unassigned) [Example 285] :: 111
